System: T-47D breast cancer cells
Experiment: Cell viability assay (MTT), T-47D
Format: cell-based, human
Conditions: 72 hrs treatment, 1 to 10 μM tested, ± SD, read-out: Observed IC50 for T-47D breast cancer cells
pIC50: −log10 of the molar value.
measured.property: pIC50

[
  {
    "compound": "CCc1c(Cl)c(O)c(Cl)c(O)c1C(=O)O[C@@H]1[C@@H](O)[C@@H](OC)[C@@H](OC/C2=C\\C=C\\CC(O)/C(C)=C/C(CC)C(O[C@@H]3OC(C)(C)[C@H]4OC(c5ccccc5Cl)O[C@@H]4[C@@H]3OC(=O)C(C)C)/C(C)=C/C(C)=C/CC(C(C)O)OC2=O)O[C@H]1C (some centres unmarked)",
    "measurement": 5.25
  },
  {
    "compound": "CCc1c(Cl)c(O)c(Cl)c(O)c1C(=O)O[C@@H]1[C@@H](O)[C@@H](OC)[C@@H](OC/C2=C\\C=C\\CC(O)/C(C)=C/C(CC)C(O[C@@H]3OC(C)(C)[C@H]4OC(c5cccc(O)c5)O[C@@H]4[C@@H]3OC(=O)C(C)C)/C(C)=C/C(C)=C/CC(C(C)O)OC2=O)O[C@H]1C (some centres unmarked) [TB2, 3-hydroxylbenzylidene acetal]",
    "measurement": 5.37
  },
  {
    "compound": "CCc1c(Cl)c(O)c(Cl)c(O)c1C(=O)O[C@@H]1[C@@H](O)[C@@H](OC)[C@@H](OC/C2=C\\C=C\\CC(O)/C(C)=C/C(CC)C(O[C@@H]3OC(C)(C)[C@H]4OC(c5ccc(N(CC)CC)cc5OC)O[C@@H]4[C@@H]3OC(=O)C(C)C)/C(C)=C/C(C)=C/CC(C(C)O)OC2=O)O[C@H]1C (some centres unmarked)",
    "measurement": 5.32
  },
  {
    "compound": "CCc1c(Cl)c(O)c(Cl)c(O)c1C(=O)O[C@@H]1[C@@H](O)[C@@H](OC)[C@@H](OC/C2=C\\C=C\\CC(O)/C(C)=C/C(CC)C(O[C@@H]3OC(C)(C)[C@H]4OC(c5ccc(N(CC)CC)cc5)O[C@@H]4[C@@H]3OC(=O)C(C)C)/C(C)=C/C(C)=C/CC(C(C)O)OC2=O)O[C@H]1C (some centres unmarked)",
    "measurement": 5.32
  },
  {
    "compound": "CCc1c(Cl)c(O)c(Cl)c(O)c1C(=O)O[C@@H]1[C@@H](O)[C@@H](OC)[C@@H](OC/C2=C\\C=C\\CC(O)/C(C)=C/C(CC)C(O[C@@H]3OC(C)(C)[C@H]4OC(c5cccc(OC)c5)O[C@@H]4[C@@H]3OC(=O)C(C)C)/C(C)=C/C(C)=C/CC(C(C)O)OC2=O)O[C@H]1C (some centres unmarked)",
    "measurement": 5.30
  }
]
